- test.details: Metabolic stability in mouse liver microsomes assessed as metabolic rate at 1 uM preincubated for 5 mins followed by NADPH addition and measured up to 30 mins by LC/MS-MS analysis
- Format: ADME, Microsome
- condition.summary: 0.5 h
measured.property: Drug metabolism (nmol/min/mg)

entry_smiles=O=S(=O)(Nc1nccs1)c1ccc2c(c1)OCC[C@@H]2c1ccc(C(F)(F)F)cc1-n1ccnn1 recorded_value=0.02

I: Cn1nccc1-c1cc(C(F)(F)F)ccc1[C@H]1CCOc2cc(S(=O)(=O)Nc3nccs3)ccc21
II: Cc1ccc(-c2cc(C(F)(F)F)ccc2[C@H]2CCOc3cc(S(=O)(=O)Nc4ncccn4)ccc32)cn1
Returns the identifier with the smallest measured Drug metabolism among I and II . // return label of chosen record
II
